# systemTested: GPx4 embedded in a mmRM (membrane-bound GPx4) (Homo sapiens, UniProt P36969, U73G)
# Construct: Truncated U46G-GPx4 with a TEV cleavable poly-histidine tag was inserted into vector; poly-histidine tag with TEV cleavage site; host or cells: BL21 (DE3) E. coli
# Sequence (P36969 1-170 isoform P36969-2 U46G): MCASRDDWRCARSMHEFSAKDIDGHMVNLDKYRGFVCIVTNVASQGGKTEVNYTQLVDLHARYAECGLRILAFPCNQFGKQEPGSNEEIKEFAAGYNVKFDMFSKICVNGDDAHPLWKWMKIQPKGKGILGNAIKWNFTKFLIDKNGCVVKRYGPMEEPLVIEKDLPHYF
# testName: NMR (15N-HSQC) titration of fragments against GPx4 embedded in DLPC/DPC mmRM, apparent Kd
# Type: binding
# cond: Table 1; GPx4 in DLPC/DPC mmRM, NMR titration up to 400 μM or 1 mM; ± standard error of global Kd fit; read-out: Kd (apparent)
propertyLabel: Kd (µM)

Worked cases, answers included:
>>> print(df.to_string())
                                   molecule  propertylabel  observed
0  O=c1oc2ccc(O)cc2s1 [Fragment 5, 5-hydroxy-1,3-benzoxathiol-2-one]             Kd       220
1  O=c1cc(Nc2ccccc2)cc[nH]1 [Fragment 1, 4-(phenylamino)-1,2-dihydropyridin-2-one]             Kd       105
2                      N#Cc1ccc(CC(=O)O)cc1             Kd       110
3                      NCc1nc(-c2ncccn2)no1             Kd       310

a = COCCNCc1ccncc1.Cl
b = CC(=O)c1c(C)nn(CC(=O)O)c1C
Q: Which of the two items, a and b , has the greater recorded Kd? Please indicate the selected item by its label.
Ans: b
